Target: ATR (Homo sapiens, UniProt Q13535)
Construct: endogenous in cells; host or cells: PC3, C4-2B/MR, SUM149PT-BRCA1rev, UWB1.289+BRCA1, MDA-MB-231
Sequence (Q13535 whole entry): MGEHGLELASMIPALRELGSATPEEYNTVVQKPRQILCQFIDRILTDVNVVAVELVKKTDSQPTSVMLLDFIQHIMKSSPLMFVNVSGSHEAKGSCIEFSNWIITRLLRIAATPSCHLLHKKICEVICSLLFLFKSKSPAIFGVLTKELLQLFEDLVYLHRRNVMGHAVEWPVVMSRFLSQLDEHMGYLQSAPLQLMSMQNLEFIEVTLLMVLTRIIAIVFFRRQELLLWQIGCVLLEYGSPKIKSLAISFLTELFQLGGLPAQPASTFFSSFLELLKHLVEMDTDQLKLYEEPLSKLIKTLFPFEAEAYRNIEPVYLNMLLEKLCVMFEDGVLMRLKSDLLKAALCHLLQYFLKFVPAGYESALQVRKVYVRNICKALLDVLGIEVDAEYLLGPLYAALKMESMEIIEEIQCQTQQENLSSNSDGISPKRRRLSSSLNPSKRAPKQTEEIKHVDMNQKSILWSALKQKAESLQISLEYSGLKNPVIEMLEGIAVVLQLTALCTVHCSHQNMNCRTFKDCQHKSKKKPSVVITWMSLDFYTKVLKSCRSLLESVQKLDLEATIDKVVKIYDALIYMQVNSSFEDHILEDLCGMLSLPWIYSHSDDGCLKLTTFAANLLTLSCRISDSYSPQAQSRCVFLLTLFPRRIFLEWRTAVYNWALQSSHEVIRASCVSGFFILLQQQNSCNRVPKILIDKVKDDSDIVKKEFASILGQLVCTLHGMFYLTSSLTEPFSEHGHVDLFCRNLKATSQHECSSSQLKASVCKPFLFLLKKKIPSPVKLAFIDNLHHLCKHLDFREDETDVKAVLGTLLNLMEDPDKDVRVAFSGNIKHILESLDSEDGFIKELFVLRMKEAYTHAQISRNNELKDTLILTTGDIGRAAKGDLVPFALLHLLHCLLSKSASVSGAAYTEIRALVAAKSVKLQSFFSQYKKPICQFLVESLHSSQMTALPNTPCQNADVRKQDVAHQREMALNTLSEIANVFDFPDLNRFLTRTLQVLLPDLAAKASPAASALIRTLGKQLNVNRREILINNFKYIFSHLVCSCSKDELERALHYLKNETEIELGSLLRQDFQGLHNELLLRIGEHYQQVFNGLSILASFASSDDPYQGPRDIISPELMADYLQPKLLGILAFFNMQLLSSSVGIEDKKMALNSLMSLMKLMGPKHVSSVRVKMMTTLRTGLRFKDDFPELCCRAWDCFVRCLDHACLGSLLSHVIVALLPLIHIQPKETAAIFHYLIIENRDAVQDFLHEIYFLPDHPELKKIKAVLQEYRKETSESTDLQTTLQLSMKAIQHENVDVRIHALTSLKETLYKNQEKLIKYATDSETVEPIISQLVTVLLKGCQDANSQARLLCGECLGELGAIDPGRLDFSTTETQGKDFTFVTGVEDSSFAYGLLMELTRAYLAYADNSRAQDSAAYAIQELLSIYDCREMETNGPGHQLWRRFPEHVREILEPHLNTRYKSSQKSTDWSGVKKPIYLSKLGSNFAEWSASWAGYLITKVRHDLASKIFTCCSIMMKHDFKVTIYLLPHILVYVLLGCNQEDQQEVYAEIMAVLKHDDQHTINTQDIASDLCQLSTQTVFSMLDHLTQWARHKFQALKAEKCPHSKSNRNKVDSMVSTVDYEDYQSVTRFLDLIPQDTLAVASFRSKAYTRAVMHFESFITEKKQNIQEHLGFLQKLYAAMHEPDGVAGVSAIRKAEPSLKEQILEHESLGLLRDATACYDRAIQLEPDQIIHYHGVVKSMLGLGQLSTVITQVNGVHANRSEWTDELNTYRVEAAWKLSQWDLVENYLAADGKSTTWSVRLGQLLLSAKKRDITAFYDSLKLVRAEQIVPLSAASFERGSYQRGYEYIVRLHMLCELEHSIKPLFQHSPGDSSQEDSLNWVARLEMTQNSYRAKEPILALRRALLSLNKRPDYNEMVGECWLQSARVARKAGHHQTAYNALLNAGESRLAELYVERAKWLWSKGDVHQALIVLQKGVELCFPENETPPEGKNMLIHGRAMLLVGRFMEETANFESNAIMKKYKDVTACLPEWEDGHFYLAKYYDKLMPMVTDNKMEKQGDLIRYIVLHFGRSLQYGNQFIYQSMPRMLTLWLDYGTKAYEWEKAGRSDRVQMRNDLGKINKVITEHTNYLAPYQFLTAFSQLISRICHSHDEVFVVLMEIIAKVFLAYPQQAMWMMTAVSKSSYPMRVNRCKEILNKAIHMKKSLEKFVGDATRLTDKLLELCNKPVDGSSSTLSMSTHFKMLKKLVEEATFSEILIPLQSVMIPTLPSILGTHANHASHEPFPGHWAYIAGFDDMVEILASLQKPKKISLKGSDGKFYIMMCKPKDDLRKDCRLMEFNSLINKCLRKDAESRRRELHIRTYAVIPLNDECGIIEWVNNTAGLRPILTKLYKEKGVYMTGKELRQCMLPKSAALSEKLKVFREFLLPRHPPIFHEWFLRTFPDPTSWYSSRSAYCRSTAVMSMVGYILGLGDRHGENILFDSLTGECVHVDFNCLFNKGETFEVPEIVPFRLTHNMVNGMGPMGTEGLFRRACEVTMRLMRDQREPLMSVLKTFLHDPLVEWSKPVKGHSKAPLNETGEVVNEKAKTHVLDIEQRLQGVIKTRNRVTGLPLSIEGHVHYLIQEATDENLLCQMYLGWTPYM
Sequence (Q8WXE1 whole entry partner): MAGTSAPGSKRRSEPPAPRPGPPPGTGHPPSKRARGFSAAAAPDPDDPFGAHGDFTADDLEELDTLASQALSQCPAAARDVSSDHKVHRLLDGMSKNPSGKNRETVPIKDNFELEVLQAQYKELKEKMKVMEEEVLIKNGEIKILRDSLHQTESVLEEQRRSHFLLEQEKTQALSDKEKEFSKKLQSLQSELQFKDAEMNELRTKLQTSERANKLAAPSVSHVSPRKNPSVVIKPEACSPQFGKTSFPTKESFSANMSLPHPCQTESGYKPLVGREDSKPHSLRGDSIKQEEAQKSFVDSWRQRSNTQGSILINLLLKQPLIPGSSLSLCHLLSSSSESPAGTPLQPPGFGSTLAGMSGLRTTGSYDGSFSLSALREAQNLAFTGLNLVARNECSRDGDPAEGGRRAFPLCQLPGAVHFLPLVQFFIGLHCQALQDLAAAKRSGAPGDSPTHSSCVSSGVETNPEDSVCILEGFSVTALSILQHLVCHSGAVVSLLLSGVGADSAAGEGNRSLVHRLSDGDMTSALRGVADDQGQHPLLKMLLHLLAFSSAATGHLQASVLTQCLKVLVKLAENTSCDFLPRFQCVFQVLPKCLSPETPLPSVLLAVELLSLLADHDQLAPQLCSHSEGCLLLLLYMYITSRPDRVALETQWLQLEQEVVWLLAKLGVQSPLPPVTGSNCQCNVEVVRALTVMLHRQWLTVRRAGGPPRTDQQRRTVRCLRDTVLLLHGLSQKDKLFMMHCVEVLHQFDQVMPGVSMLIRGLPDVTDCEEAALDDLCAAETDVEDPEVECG
Experiment: ATR-mediated signaling: phosphorylation of Rad17 Ser 645 and CHK1 Ser 345 in cells
Format: cell-based
Settings: 1 μM and 2 μM; PC3 cells
value.type: Olaparib induced phosphorylation of Rad17 at Ser 645 and CHK1 at Ser 345

CCCCN(CCCC)C(=O)Nc1ccc(C(=O)NC2C/C(=C\c3ccc(F)c(F)c3)C(=O)/C(=C/c3ccc(F)c(F)c3)C2)cc1 (stereo not shown): inhibited
CCN(CC)C(=O)Nc1ccc(C(=O)NC2C/C(=C\c3ccc(F)c(F)c3)C(=O)/C(=C/c3ccc(F)c(F)c3)C2)cc1 (stereo not shown): inhibited
O=C1/C(=C/c2cc(Cl)cc(Cl)c2)CC(NC(=O)c2ccc(NCCN3CCCC3)cc2)C/C1=C\c1cc(Cl)cc(Cl)c1 (stereo not shown): inhibited

* * *

Molecular target: PARP1 (Homo sapiens)
Construct: endogenous in cells; host or cells: PC3
Sequence (P09874 whole entry, species assumed): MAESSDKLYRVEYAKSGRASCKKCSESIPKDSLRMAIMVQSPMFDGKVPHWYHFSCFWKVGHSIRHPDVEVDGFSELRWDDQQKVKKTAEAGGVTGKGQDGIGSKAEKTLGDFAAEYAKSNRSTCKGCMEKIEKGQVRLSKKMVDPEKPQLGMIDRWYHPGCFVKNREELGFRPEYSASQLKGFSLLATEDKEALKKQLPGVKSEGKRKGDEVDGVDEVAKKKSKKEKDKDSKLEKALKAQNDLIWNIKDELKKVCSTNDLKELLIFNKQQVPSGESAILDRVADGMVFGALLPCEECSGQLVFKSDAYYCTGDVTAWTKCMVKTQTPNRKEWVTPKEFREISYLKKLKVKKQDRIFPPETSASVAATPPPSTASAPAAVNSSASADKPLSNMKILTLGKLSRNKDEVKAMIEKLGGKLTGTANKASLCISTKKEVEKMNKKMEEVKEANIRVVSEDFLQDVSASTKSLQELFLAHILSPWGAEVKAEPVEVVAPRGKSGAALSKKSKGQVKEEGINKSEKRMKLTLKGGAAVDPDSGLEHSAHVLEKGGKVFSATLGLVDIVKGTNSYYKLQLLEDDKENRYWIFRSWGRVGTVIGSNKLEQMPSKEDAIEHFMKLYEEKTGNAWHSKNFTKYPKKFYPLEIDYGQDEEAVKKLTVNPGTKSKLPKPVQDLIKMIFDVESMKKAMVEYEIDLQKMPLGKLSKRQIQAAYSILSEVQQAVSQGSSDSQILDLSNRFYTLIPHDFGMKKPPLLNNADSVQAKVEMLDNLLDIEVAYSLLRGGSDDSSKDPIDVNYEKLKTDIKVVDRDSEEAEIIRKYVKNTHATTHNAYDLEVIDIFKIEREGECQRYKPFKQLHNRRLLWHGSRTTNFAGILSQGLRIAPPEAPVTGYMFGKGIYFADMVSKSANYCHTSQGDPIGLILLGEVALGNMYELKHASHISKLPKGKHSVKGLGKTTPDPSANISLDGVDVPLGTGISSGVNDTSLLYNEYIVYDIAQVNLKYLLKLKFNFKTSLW
Assay: PARP1 trapping, chromatin fractionation (chromatin-bound fraction)
Format: cell-based
Details: 0.3 μM; PC3 cells
Description: The trapped PARP1 forms a toxic lesion and stalls the progress of replication forks. The replication fork collapses in BRCA1/2-deficient cancer cells, and then results in cell death. […]
value.type: PARP1 trapped on DNA lesions

CCCN(CCC)CCOc1ccc(C(=O)NC2C/C(=C\c3cc(Cl)cc(Cl)c3)C(=O)/C(=C/c3cc(Cl)cc(Cl)c3)C2)cc1 (stereo not drawn): trapped
O=C1/C(=C/c2ccc(F)c(F)c2)CC(NC(=O)c2ccc(NC(=O)N3CCN(C(=O)C4CC4)CC3)cc2)C/C1=C\c1ccc(F)c(F)c1 (stereo not drawn): trapped
CN1CCN(CCOc2ccc(C(=O)NC3C/C(=C\c4ccc(F)c(F)c4)C(=O)/C(=C/c4ccc(F)c(F)c4)C3)cc2)CC1 (stereo not drawn): trapped
